assay: AUC in bacterial pathogen-infected neutropenic Swiss ICR mouse thigh infection model at 40 mg/kg, ip; type: ADME, organism-based; parameters: dose 40 mg/kg, route intraperitoneal; details: in vivo
Measure Name: AUC (µg·h/mL)

Smiles Representation	Units Of Measure	Measured Result
CN[C@H]1C(=O)N[C@@H]2Cc3ccc(cc3)Oc3cc4cc(c3O[C@@H]3O[C@H](C(=O)O)[C@@H](O)[C@H](O)[C@H]3NC(=O)CCCCCCCCC(C)C)Oc3ccc(cc3Cl)[C@@H](O)[C@@H]3NC(=O)[C@H](NC(=O)[C@@H]4NC(=O)[C@@H](NC2=O)c2cc(cc(O)c2Cl)Oc2cc1ccc2O)c1ccc(O)c(c1)-c1c(O[C@H]2O[C@H](CO)[C@@H](O)[C@H](O)[C@@H]2O)cc(O)cc1[C@@H](C(=O)NCCCN(C)C)NC3=O	µg·h/mL	5360

Source of measurements: ChEMBL document CHEMBL1145462
